Reference source: a melting point compilation (Tetko et al.; mined from patent text by program, amines drawn as free bases though some values may be those of a salt)

Quantity Measured: melting point

compound=Cc1ccc(S(=O)(=O)OC[C@H]2CN(c3cccc(F)c3)C(=O)O2)cc1 result="114 to 115 °C"
compound=COCOc1cc(NC(=O)OC(C)(C)C)cc2ccccc12 result="64 to 66 °C"
compound=CC(C)(C)C1(O)CCN(C(=O)C2c3ccccc3CCc3ccccc32)CC1 result="189 to 190 °C"
compound=BrCc1ccccc1-c1ccccc1CBr result="85 to 88 °C"
compound=CNC1(c2ccc(C#CC(=O)Nc3ccc(-c4ccc(Cl)cc4)cc3)cc2)CC1 result="217 °C"
compound="CCN1c2ncc(CC(F)c3ccncc3)cc2C(=O)N(C)c2ccc(Cl)nc21 (stereo unspecified)" result="180 °C"
compound=COc1cc2c(cc1C)CCN=C2C1(c2ccco2)CC1 result="98 to 100 °C"
compound=CC(=O)c1ccc(S)cc1OCC(=O)O result="149 to 150 °C"

input: Which melting point value belongs to COc1cc(-c2ccncc2)n[nH]1 ?
output: 140 °C

input: Query: melting point; subject: O=C(O)COc1cccc(CCc2cc(-c3ccccc3)n(-c3ccccc3)n2)c1
output: 125 to 127 °C

input: Which measured melting point value corresponds to O=c1c2ccc(Cl)cc2[nH]c2c(O)nn(Cc3ccsc3)c(=O)c12 ?
output: > 250 °C

====

Quantity Measured: melting point

Example results:
molecule=O=C(NC1(C(=O)O)CCCCC1)OCc1ccccc1 quantity_measured="melting point" result="152 to 154 °C"
molecule="O=C1NC(=O)C(Cc2ccc(OCc3nc(-c4ccccc4)cs3)cc2)S1 (stereo not given)" quantity_measured="melting point" result="164 to 165 °C"
molecule="CC(=O)OCCC1=CCC2C3CCC4=CCC=CC4(C)C3C(O)CC12C (stereo not given)" quantity_measured="melting point" result="203 to 205 °C"
molecule=CCc1cccc(C)c1CNc1nc(OC)cc2c1nc(C)n2C quantity_measured="melting point" result="106 to 107 °C"
molecule=COC(=O)Cc1nsc(NC(=O)OCc2ccccc2)n1 quantity_measured="melting point" result="121 to 123 °C"

Field: next molecule
input: Query (molecule): CCc1cc(NCc2ccc(-c3ccccc3C#N)cc2)n2ncc(Cl)c2n1 ; field requested: melting point
output: 152 to 154 °C

====

Quick reference: melting point of the listed items.

See these solved cases before continuing.
molecule="O=C(O)C=NOC(CCCc1ccc(Cl)cc1)c1ccc(OCc2ccc3ccccc3n2)cc1 (stereo unspecified)" result="174 to 177 °C"
molecule=CC(C)(C)OC(=O)N1CCC(Cc2cn(S(=O)(=O)c3ccccc3)c3ccc(F)cc23)CC1 result="155 to 157 °C"
molecule=Cc1ccccc1C(=O)N[C@@H]1CCc2cccc(N3CCN(C)CC3)c2C1 result="179 to 180 °C"

input: Field request: melting point | item: O=CN(O)C(CCc1ccccc1)CS(=O)(=O)N1CCN(c2cc(Cl)ncn2)CC1 (stereo unspecified)
output: 155 to 157 °C

input: Need melting point, item CCn1c(C(C)C)cc(-c2ccc(F)cc2)c1-c1ccccc1
output: 110 °C

input: Which measured melting point value corresponds to Cn1c(C(N)=O)nc([N+](=O)[O-])c1C#N ?
output: 265 to 267 °C

input: What value of melting point has been reported for the following molecule? CCCCCCCCCCCCCCCCS(=O)(=O)Nc1cccc2ccc(O)cc12
output: 104 to 107 °C

input: What value of measured melting point is listed for CCOc1nn(Cc2ccc(OCc3nc(-c4ccccc4)oc3C)cn2)cc1CCC(=O)O ?
output: 133 to 134 °C

input: Request the reported melting point associated with NS(=O)(=O)c1cccc(-c2nc(-c3cnn4c(C(F)(F)F)cc(-c5ccc(C(F)(F)F)cc5)nc34)no2)c1
output: 285 °C

input: Consider the molecule COC(=O)c1cc(C(O)(C(F)(F)F)C(F)(F)F)ccc1NS(C)(=O)=O and give its measured melting point.
output: 147 to 148 °C

input: Dear colleague, I am looking for the recorded melting point of the following molecule: Nc1cccc(-c2cc3ccccc3[nH]2)c1
output: 166 °C

input: Give the measured melting point of NC(=S)NN=C(CCCNC(=O)C1CCCCC1)c1ccccc1 .
output: 158 to 159 °C
